Tested on: male rats of the Sprague Dawley S.P.F. strain
Assay: Hypolipemiant activity in rats on sucrose- and cholesterol-rich regime, % variation of levels versus untreated controls
Type: in vivo, rat (Sprague Dawley S.P.F.)
Details: 5 mg/kg day, 10 days, esophagus tube, vs untreated controls
The following compounds are listed with their measured % Variation of levels, Cholesterol values.

[
  {
    "COMPOUND": "COC(=O)C1Oc2ccc(Cl)cc2C(C)(c2cccc(C(F)(F)F)c2)O1 (stereo not shown) [Example 18]",
    "TARGET": "male rats of the Sprague Dawley S.P.F. strain",
    "% Variation of levels, Cholesterol / %": -41
  },
  {
    "COMPOUND": "C=CC1(c2ccccc2)OC(C(=O)OC)Oc2ccc(Cl)cc21 (single isomer, unassigned) [Example 22]",
    "TARGET": "male rats of the Sprague Dawley S.P.F. strain",
    "% Variation of levels, Cholesterol / %": -35
  },
  {
    "COMPOUND": "COC(=O)C1Oc2ccc(OC)cc2C(C)(c2ccccc2)O1 (single isomer, unassigned) [Example 30]",
    "TARGET": "male rats of the Sprague Dawley S.P.F. strain",
    "% Variation of levels, Cholesterol / %": -43
  },
  {
    "COMPOUND": "COC(=O)C1Oc2ccc(Cl)cc2C(Cc2ccccc2)(c2ccccc2)O1 (single isomer, unassigned) [Example 32]",
    "TARGET": "male rats of the Sprague Dawley S.P.F. strain",
    "% Variation of levels, Cholesterol / %": -45
  }
]

Where do the numbers come from? From patent US4281012A.
